assay: Acute toxicity (LD50) in mice; settings: mouse, in vivo, iv
assayReadout: LD50 (mg/kg)
Numbers only; they are read as mg/kg.

Guide cases for LD50, answers given:
CNC1(c2ccccc2Cl)CCCCC1=O (stereo not drawn) [Ketalar]    62
CN1C(=O)NC(=O)C(C)(C2=CCCCC2)C1=O (stereo not drawn) [Hexobarbital, 5-methyl-5-hexenyl-barbituric acid]    118

Let us move to another entry and its LD50.
Request: # get_value(readout='LD50', item= Cc1cc2n(n1)C1(CCCCC1)N(C)N(C)C2=O [Example 5] )
Result: 192

----------
experiment: Acute toxicity (LD50, lethality) in rabbits; details: rabbit, in vivo, iv, LD50, rabbits
Recorded measurements of LD50, one per entry

CNC1(c2ccccc2Cl)CCCCC1=O (centres unmarked)    < 50 mg/kg

Request: # get_value(readout='LD50', item= "Cc1cc2n(n1)C1(CCCCC1)N(C)N(C)C2=O" )
Result: ~325 mg/kg
